Where do these numbers come from? They come from BindingDB's records for doi:10.1016/j.bmcl.2005.06.044.

assay: Androgen antagonistic activity as inhibitory concentration against testosterone-induced SC-3 cell proliferation
pIC50: −log10 of the molar value.

molecule: CCC(CC)(c1ccc(O)c(C)c1)c1ccc(NCC(=O)C(C)(C)C)c(C)c1
pIC50: 5.46

molecule: CCC(CC)(c1ccc(NCCC(C)(C)O)c(C)c1)c1ccc(OCC(=O)C(C)(C)C)c(C)c1
pIC50: 6.09

molecule: CCC(CC)(c1ccc(OC[C@H](O)CO)c(C)c1)c1ccc(OC[C@H](O)C(C)(C)C)c(C)c1
pIC50: 7.72

molecule: CCC(CC)(c1ccc(NCC(O)CO)c(C)c1)c1ccc(OCC(O)C(C)(C)C)c(C)c1 (centres undefined)
pIC50: 8.05

molecule: CCC(CC)(c1ccc(OCC(=O)C(C)(C)C)c(C)c1)c1ccc(OCC(=O)C(C)(C)C)c(C)c1
pIC50: 5.72

molecule: CCC(CC)(c1ccc(NCC(=O)C(C)(C)C)c(C)c1)c1ccc(OCC(=O)C(C)(C)C)c(C)c1
pIC50: 5.92

molecule: CCC(CC)(c1ccc(NCCC(C)(C)O)c(C)c1)c1ccc(NCCC(C)(C)O)c(C)c1
pIC50: 5.17

molecule: CCC(CC)(c1ccc(NCC(=O)C(C)(C)C)c(C)c1)c1ccc(NCC(=O)C(C)(C)C)c(C)c1
pIC50: 6.00

molecule: CCC(CC)(c1ccc(NCC(O)C(C)(C)C)c(C)c1)c1ccc(NCC(O)C(C)(C)C)c(C)c1 (centres undefined)
pIC50: 6.00
